For each record, write down the corresponding fold change of affinity.
experimental.target: T1, Human CD3eg linker (human)
T1 construct: Single chain: epsilon and gamma subunits of human CD3 joined by a 29-mer linker, Flag-tag at the C-terminus; also called recombinant human CD3
T1 chain: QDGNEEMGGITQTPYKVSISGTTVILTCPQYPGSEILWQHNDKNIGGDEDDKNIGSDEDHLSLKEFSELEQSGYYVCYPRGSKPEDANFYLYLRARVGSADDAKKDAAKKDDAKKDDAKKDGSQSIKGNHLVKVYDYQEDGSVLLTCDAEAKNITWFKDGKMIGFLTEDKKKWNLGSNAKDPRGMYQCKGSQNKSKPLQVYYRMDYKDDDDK
protocol.details: Biacore SPR, vs template H183/L072
Numbers only, in fold.

{"binder": "H183/L072 VH F27L (antibody, name in Kabat numbering, V domains shown) VH: QVQLVESGGGLVQPGRSLRLSCAASGLTFSNAWMHWVRQAPGKGLEWVAQIKDKGNAYAAYYAPSVKGRFTISRDDSKNSIYLQMNSLKTEDTAVYYCHYVHYASASTVLPAFGVDAWGQGTTVTVSS VL: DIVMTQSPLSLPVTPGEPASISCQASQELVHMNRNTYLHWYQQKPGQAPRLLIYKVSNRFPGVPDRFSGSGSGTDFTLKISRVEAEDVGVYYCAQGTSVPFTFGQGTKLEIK", "output.unit": "fold", "fold change of affinity": 0.4}

[in] Would you kindly share the measured fold change of affinity for H183/L072 VH A60L (antibody, name in Kabat numbering, V domains shown) VH: QVQLVESGGGLVQPGRSLRLSCAASGFTFSNAWMHWVRQAPGKGLEWVAQIKDKGNAYAAYYLPSVKGRFTISRDDSKNSIYLQMNSLKTEDTAVYYCHYVHYASASTVLPAFGVDAWGQGTTVTVSS VL: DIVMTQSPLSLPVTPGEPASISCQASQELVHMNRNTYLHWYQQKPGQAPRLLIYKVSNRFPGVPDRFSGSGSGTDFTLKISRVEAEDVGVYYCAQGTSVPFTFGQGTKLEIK ?
[out] 1.2
